- Assayed target: GCGR extracellular domain (human, UniProt P47871)
- Sequence (P47871 26-477): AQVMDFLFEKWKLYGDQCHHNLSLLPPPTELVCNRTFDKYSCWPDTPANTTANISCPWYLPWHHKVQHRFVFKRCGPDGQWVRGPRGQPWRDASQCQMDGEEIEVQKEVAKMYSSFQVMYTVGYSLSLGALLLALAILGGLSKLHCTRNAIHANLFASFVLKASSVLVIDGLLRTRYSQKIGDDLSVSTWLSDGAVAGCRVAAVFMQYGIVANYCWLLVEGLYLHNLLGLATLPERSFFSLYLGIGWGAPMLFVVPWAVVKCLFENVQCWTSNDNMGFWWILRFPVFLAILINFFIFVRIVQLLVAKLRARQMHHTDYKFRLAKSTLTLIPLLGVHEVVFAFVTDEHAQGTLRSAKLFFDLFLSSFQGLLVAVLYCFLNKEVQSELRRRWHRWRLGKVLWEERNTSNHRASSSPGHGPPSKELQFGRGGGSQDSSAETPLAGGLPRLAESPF
- Experimental details: SPR
Kd values for the binders below.
Answer with a number only, understood to be in nM.

VL Y96A (antibody, V domains shown) VH: EVQLVESGGGLVQPGGSLRLSCAASGFNIYYNYIHWVRQAPGKGLEWVAEFSPYSGSTYYADSVKGRFTISADTSKNTAYLQMNSLRAEDTAVYYCARSAAIVDWYDYFKGFDYWGQGTLVTVSS VL: DIQMTQSPSSLSASVGDRVTITCRASQSVSSAVAWYQQKPGKAPKLLIYSASSLYSGVPSRFSGSRSGTDFTLTISSLQPEDFATYYCQQYGSYLATFGQGTKVEIK ... 0.93

Q: Please report the recorded Kd for VH F51A (antibody, V domains shown) VH: EVQLVESGGGLVQPGGSLRLSCAASGFNIYYNYIHWVRQAPGKGLEWVAEASPYSGSTYYADSVKGRFTISADTSKNTAYLQMNSLRAEDTAVYYCARSAAIVDWYDYFKGFDYWGQGTLVTVSS VL: DIQMTQSPSSLSASVGDRVTITCRASQSVSSAVAWYQQKPGKAPKLLIYSASSLYSGVPSRFSGSRSGTDFTLTISSLQPEDFATYYCQQYGSYLYTFGQGTKVEIK .
A: 1.5
